# EXPERIMENTAL_DETAILS: photoluminescence quantum yield (fraction); solvent given as SMILES
# ASSAY_CONDITIONS: in CO
Classification field: enter 1.0 for photoluminescence quantum yield values not below 0.002, 0.0 for values below it.

Use the examples below as a reference point.
Cc1ccc(-n2c3ccccc3c3cc(C=C(C#N)C#N)ccc32)cc1	1.0
COC1=[N+]2C(=C(c3ccccc3)c3ccc(OC)n3[B-]2(F)F)C=C1SC#N	1.0
CC1(C)Oc2c(c3nc4ccccc4nc3c3ccccc23)CC1Br (stereo not given)	1.0

*Q* Determine whether measured photoluminescence quantum yield meets or exceeds 0.002 for `CCCCCCN(CCCCCC)c1ccc(C#Cc2ccc(N(CCCCCC)CCCCCC)cc2)cc1`
*A* 0.0

----------
# EXPERIMENTAL_DETAILS: photoluminescence quantum yield (fraction); solvent given as SMILES
# ASSAY_CONDITIONS: in ClCCl
One threshold, 0.3, splits the recorded photoluminescence quantum yield values: lower ones are 1, equal or higher ones are -1.

Reference set (5 entries):
Cc1ccc(C#Cc2c3cc4ccccc4cc3c(C#C[Si](C(C)C)(C(C)C)C(C)C)c3cc4ccccc4cc23)cc1	1
COCCOCCOCCOCC(COCCOCCOCCOC)Oc1cc(/C=C/c2ccc(/C=C(\C#N)c3ccccc3)cc2)c(OC(COCCOCCOCCOC)COCCOCCOCCOC)cc1/C=C/c1ccc(/C=C(\C#N)c2ccccc2)cc1	-1
COc1ccc2c(c1)CCC1=C(C#Cc3ccccc3)O[B-](F)(F)[O+]=C12	-1
CCCCCCCCCCCCCCCCOc1cc(C#Cc2ccc3ccccc3c2-c2c(C#Cc3cc(OCCCCCCCCCCCCCCCC)c(C#Cc4ccc(C=C(C#N)C#N)cc4)cc3OCCCCCCCCCCCCCCCC)ccc3ccccc23)c(OCCCCCCCCCCCCCCCC)cc1C#Cc1ccc(C=C(C#N)C#N)cc1	1
Cc1cccc2[n+]1[B-](F)(F)n1c(c3cccc4cccc1c43)=N2	-1

*Q* Would you kindly verify if photoluminescence quantum yield of `COc1ccc(-c2cnc(/C=C/c3ccccc3)o2)cc1OC` is strictly less than 0.3?
*A* -1

*Q* In plain terms, does `CCN(CC)c1ccc2c(c1)oc(=O)c1c(=O)oc3cc(Br)ccc3c12` come in under 0.3 for photoluminescence quantum yield?
*A* -1

*Q* hey, is photoluminescence quantum yield for `CN(C)c1ccc(/C=C/C=C/c2nc3ccccc3o2)cc1` lower than 0.3 or not?
*A* 1

*Q* hey, is photoluminescence quantum yield for `COc1cnc(-c2cc[n+](C3=C(F)C(F)(F)C(F)(F)[C-]3F)cc2)s1` lower than 0.3 or not?
*A* -1

*Q* Confirm or reject: photoluminescence quantum yield of `CC(C)(C)c1ccc(-c2cc(-c3ccc(-c4cc(-c5ccc(C(C)(C)C)cc5)c(C(=O)NCc5cccs5)s4)s3)sc2C(=O)NCc2cccs2)cc1` lies strictly below 0.3
*A* -1

*Q* Dear colleague, could you confirm whether photoluminescence quantum yield of `Cn1c(=O)cc(C(=O)c2ccccc2)c2sc(-c3ccc(OC(F)(F)F)cc3)cc21` falls below 0.3? Thanks.
*A* -1

*Q* Threshold test, photoluminescence quantum yield < 0.3: `COc1ccc2cc(C3=[N+]4C(=Nc5c(-c6ccccc6)cc(-c6ccc7cc(OC)ccc7c6)n5[B-]4(F)F)C(c4ccccc4)=C3Br)ccc2c1`
*A* 1

*Q* Please indicate whether the reported photoluminescence quantum yield of `COc1cc2c(cc1OC)C1=C[C@H](c3ccc(C)cc3)C3(C(C#N)=C(C#N)N1CC2)c1cc(Cl)ccc1-c1ccc(Cl)cc13` is strictly below 0.3.
*A* 1

*Q* Dear colleague, could you confirm whether photoluminescence quantum yield of `COc1ccc(N(c2ccc(OC)cc2)c2ccc(-c3ccc4c(c3)C(=O)c3ccccc3C4=O)cc2)cc1` falls below 0.3? Thanks.
*A* 1

----------
# EXPERIMENTAL_DETAILS: photoluminescence quantum yield (fraction); solvent given as SMILES
# ASSAY_CONDITIONS: in CO
Hi there, I'd appreciate the recorded photoluminescence quantum yield for every entry that follows.
Answers are plain numbers.

Worked examples, 5 compounds total:
COc1cc(OC)cc(-c2ccc(-c3ccc(C#N)s3)s2)c1	0.1
COc1ccc2n1[B-](F)(F)[N+]1=C(SC#N)C=CC1=C2c1ccccc1	0.05
CCCCCCCCCCN1C(=O)c2cc(NCCCOCCO)c3c4c(cc(NCCCOCCO)c(c24)C1=O)C(=O)N(CCCCCCCCCC)C3=O	0.43
COC(=O)C(Cc1ccc2oc(-c3ccc4c(c3)c3ccccc3n4-c3ccccc3)nc2c1)NC(=O)OC(C)(C)C (configuration not stated)	0.99
C(/C=C/c1ccc(-n2c3ccccc3c3ccccc32)cc1)=C\c1ccncc1	0.02

Give measured photoluminescence quantum yield for every item shown.
1. c1ccc(N(c2ccccc2)c2ccc(-c3ncc(-c4ccc(-c5cnc(-c6ccc(N(c7ccccc7)c7ccccc7)cc6)s5)s4)s3)cc2)cc1
2. Nc1cccc2cccc(N)c12

*A*
1. 0.16
2. 0.09

----------
# EXPERIMENTAL_DETAILS: photoluminescence quantum yield (fraction); solvent given as SMILES
# ASSAY_CONDITIONS: in C1CCOC1
READOUT_TYPE: photoluminescence quantum yield
Give bare numbers.

Please state, for each entry, its recorded photoluminescence quantum yield.
1. O=C1c2cccc3c(NCc4ccccn4)c4ccccc4c(c23)C(=O)N1Cc1ccccn1
2. Cc1ccc(-c2ccc(-c3ccc(-c4ccc(C)cc4)cc3/C(=C(/c3ccccc3)c3cc(-c4ccc(C)cc4)ccc3-c3ccc(-c4ccc(C)cc4)cc3)c3ccccc3)cc2)cc1
3. CSC1=C(C)C2=C(c3ccc(C)cc3)c3c(C)c(Cl)c(C)n3[B-](F)(F)[N+]2=C1C
4. COc1ccc(-c2c3ccc([nH]3)c3nc(c(-c4ccc(C#N)cc4)c4ccc([nH]4)c4ccc([nH]4)c(-c4ccc(OC)cc4)c4ccc2o4)C=C3)cc1

*A*
1: 0.07; 2: 0.3; 3: 0.07; 4: 0.072

----------
# EXPERIMENTAL_DETAILS: photoluminescence quantum yield (fraction); solvent given as SMILES
# ASSAY_CONDITIONS: in C1CCOC1
READOUT_TYPE: photoluminescence quantum yield
Numbers only.

Consider the worked cases shown below.
c1ccc2c(c1)-c1ccccc1C21c2ccccc2-c2oc3c(c21)C1(c2ccccc2-c2ccccc21)c1ccccc1-3	0.39
CCC1(CC)c2ccccc2-c2c1c1c(c3c2C(CC)(CC)c2cc(B(c4c(C)cc(C)cc4C)c4c(C)cc(C)cc4C)ccc2-3)C(CC)(CC)c2cc(B(c3c(C)cc(C)cc3C)c3c(C)cc(C)cc3C)ccc2-1	0.4
CCCCCCCC(=O)Oc1ccc2c3cccc4c(OC(=O)CCCCCCC)ccc(c5cccc1c52)c43	0.97

# batch: return photoluminescence quantum yield for each of the 2 molecules below
1. CN(C)c1ccc(C#Cc2ccc(C#N)cc2)cc1
2. N#Cc1ccc(-c2ccc3c(c2)c2cc(-c4ccc(C#N)cc4)ccc2c2c3nc(-c3ccc(N(c4ccccc4)c4ccccc4)cc3)n2-c2ccccc2)cc1

*A*
1. 0.4
2. 0.42

Working through the 6 molecules below one at a time, give photoluminescence quantum yield for each.
1. CCn1c2ccsc2c2c3nsnc3c3c4sccc4n(CC)c3c21
2. c1ccc(-c2cc(-c3ccc4ccc5c(-c6ccnc(-c7ccccn7)c6)ccc6ccc3c4c65)ccn2)nc1
3. CCCCCCCCC1(CCCCCCCC)c2cc(C#CC#Cc3ccc(N(c4ccccc4)c4ccccc4)cc3)ccc2-c2ccc(C=O)cc21
4. CCOC(=O)COc1ccc(/C=C/C2=C3c4ccccc4C(c4[nH]c(C)cc4C)=[N+]3[B-](F)(F)n3c(/C=C/c4ccc(OCC(=O)OCC)cc4)cc(C)c32)cc1
5. CCN(CC)c1ccc2cc(/C=C/C(=O)c3cc4ccc(N(CC)CC)cc4oc3=O)c(=O)oc2c1
6. CCN1c2ccc(/C=N/Nc3ccccn3)cc2Sc2cc(-c3ccc(C#N)cc3)ccc21

*A*
0.68
0.65
0.9
0.05
0.53
0.23

Give photoluminescence quantum yield for each listed item.
1. COc1ccc(N(c2ccc(OC)cc2)c2ccc(-c3ccc4c(c3)C(=O)c3ccccc3C4=O)cc2)cc1
2. CCN(CC)c1ccc2cc(-c3cc(SC)c(C#N)c(=O)o3)c(=O)oc2c1

*A*
1: 0; 2: 0.72

----------
# EXPERIMENTAL_DETAILS: photoluminescence quantum yield (fraction); solvent given as SMILES
# ASSAY_CONDITIONS: in CC#N
Would you mind telling me the reported photoluminescence quantum yield of each entry?
Numbers only.

Illustrative cases are given below, each with its answer.
Cc1cccc(Nc2ccccc2C(=O)O)c1C	0.0013
COc1cccc(/C=C/c2ccccc2)c1	0.16
C[Si](C)(c1ccc2cc3ccccc3cc2c1)[Si](C)(C)c1ccc2cc3ccccc3cc2c1	0.04
CC1(C)Oc2c(c3nc4ccccc4nc3c3ccccc23)CC1Br (stereo not given)	0.49
CN(C)c1ccc2cc(C3=[O+][B-](F)(F)OC(c4ccccc4)=C3)ccc2c1	0.007

For each of the compounds below, note its photoluminescence quantum yield.
1. CCC1=C(C)C2=Cc3c4ccccc4c4n3[B-](c3ccc5ccc6cccc7ccc3c5c67)(Oc3ccccc3-4)[N+]2=C1C (stereo not given)
2. COC(=O)c1nc2c(N)nc(N(C)C)nc2n1Cc1ccccc1
3. COC(=O)CNC(=O)c1nc2c(N(C)C)nc(N(C)C)nc2n1Cc1ccccc1
4. CCN(CC)c1ccc(-c2ccc(-c3nc4ccccc4c(=O)[nH]3)s2)cc1
5. CN(C)c1ccc2nc(/C=C/c3cc4c5c(c3)CCCN5CCC4)c(=O)oc2c1

*A*
[0.66, 0.75, 0.95, 0.28, 0.023]

Source of measurements: the Deep4Chem optical property database
